System: rice
Assay: Test B flooded paddy test
Assay type: in vivo, Oryza sativa
Details: 1000 g ai/ha, scale 0 to 100 (0 no effect, 100 complete control)
Procedure: At the same time, plants selected from these crop and weed species and also blackgrass (Alopecurus myosuroides Huds.), wheat (Triticum aestivum L.) and wild oat (Avena fatua L.) were treated with postemergence applications of test chemicals formulated in the same manner. […] Treated plants and controls were maintained in a greenhouse for 13 to 15 days, after which time all species were compared to controls and visually evaluated. […]
Rule: Rice plant response rating below 50 gives 1. Equal to or above 50 gives 0.

CCc1cn(C(C)(C)C)nc1C(=O)Nc1cccc(C(=O)N(C)C)n1; 1
C#CCNC(=O)c1cccc(NC(=O)c2nn(C(C)(C)C)nc2CC)c1; 0
CCc1nc(C(C)(C)C)sc1C(=O)Nc1cc(C(=O)N(C)CC)ccc1F; 0

Data request: # check: Rice plant response rating < 50 for CCc1nn(C(C)(C)C)nc1C(=O)Nc1cc(C(=O)N(C)CC)ccc1F
Data returned: 0

Data request: # check: Rice plant response rating < 50 for CCNC(=O)c1cccc(NC(=O)c2cc(C(C)(C)C)n[nH]2)c1
Data returned: 1

Data request: # check: Rice plant response rating < 50 for CCc1nn(C(C)(C)CC)nc1C(=O)Nc1cccc(C(=O)N2CC=CC2)c1
Data returned: 0

Data request: # check: Rice plant response rating < 50 for CCc1nn(C(C)(C)C)nc1C(=O)Nc1cc(C(=O)N2CCCCC2)ccc1F
Data returned: 0

Data request: # check: Rice plant response rating < 50 for C#CCNC(=O)c1ccc(F)c(NC(=O)c2cc(C3(C)CC3)nn2CC)c1
Data returned: 0

Data request: # check: Rice plant response rating < 50 for Cc1nn(C(C)(C)C)nc1C(=O)Nc1cncc(C(=O)N(C)C)c1
Data returned: 1

Data request: # check: Rice plant response rating < 50 for C#CCNC(=O)c1cccc(NC(=O)c2cc(C(C)(C)C)nn2C)n1
Data returned: 1

Data request: # check: Rice plant response rating < 50 for CCC1=NN(C(C)(C)C)CC1C(=O)Nc1cc(C(=O)N(C)CC)ccc1F (racemic)
Data returned: 0

---

Measured Foxtail, Giant plant response rating, listed per entry for reference.
test system: giant foxtail; assay: Test A pre-/postemergence herbicide test; format: in vivo, Setaria faberi; details: Preemergence, 2000 g ai/ha; visual rating, 0 to 100 scale (0 no effect, 100 complete control)

CC(=O)c1cc(NC(=O)c2cc(C(C)(C)C)nn2C)ccc1F; 0

Data request: Record lookup: for giant foxtail, what Foxtail, Giant plant response rating belongs to COC(=O)c1cccc(NC(=O)c2cc(C(C)(C)C)nn2C)n1 ?
Data returned: 0

Data request: Record lookup: for giant foxtail, what Foxtail, Giant plant response rating belongs to CC(=NO)c1cccc(NC(=O)c2cc(C(C)(C)C)nn2CC(F)(F)F)c1 ?
Data returned: 50

Data request: Record lookup: for giant foxtail, what Foxtail, Giant plant response rating belongs to C=CCNC(=O)c1cccc(NC(=O)c2sc(C(C)(C)C)nc2C)c1 ?
Data returned: 80

Data request: Record lookup: for giant foxtail, what Foxtail, Giant plant response rating belongs to CCN(CC)C(=O)c1cccc(NC(=O)c2cc(C(C)(C)C)nn2CC)n1 ?
Data returned: 100

Data request: Record lookup: for giant foxtail, what Foxtail, Giant plant response rating belongs to CCn1nc(C(C)(C)C)cc1C(=O)Nc1cccc(C#N)c1 ?
Data returned: 75

Data request: Record lookup: for giant foxtail, what Foxtail, Giant plant response rating belongs to CCn1nc(C(C)(C)C)cc1C(=O)Nc1cncc(C(=O)N(C)C)n1 ?
Data returned: 100

Data request: Record lookup: for giant foxtail, what Foxtail, Giant plant response rating belongs to CCn1nc(C(C)(C)C)cc1C(=O)Nc1nc(C(=O)N(C)C)ccc1F ?
Data returned: 55

Data request: Record lookup: for giant foxtail, what Foxtail, Giant plant response rating belongs to CCn1nc(C(C)(C)C)cc1C(=O)Nc1cccc(C(=O)N2CC=CC2)c1 ?
Data returned: 100

---

Measured Plant response rating, Barnyardgrass, listed per entry for reference.
system: barnyardgrass; assay: Test C flooded paddy test; assay type: in vivo, Echinochloa crus-galli; conditions: 500 g ai/ha, visual rating after 12 to 14 days, scale 0 to 100 (0 no effect, 100 complete control)
// no unit string in output, number only

Example cases with answers are listed next.
CCn1nc(C2(C)CC2)cc1C(=O)Nc1cccc(C(=O)N2CC=CC2)c1 [Compound 304]; 95
CCc1nn(C(C)(C)CC)nc1C(=O)Nc1cccc(C(=O)N(C)C)c1 [Compound 372]; 80
CCn1nc(C(C)(C)C)cc1C(=O)Nc1cccc(C#N)c1 [Compound 139]; 65
C=CCn1nc(C(C)(C)C)cc1C(=O)Nc1cccc(C(C)=NO)c1 [Compound 117]; 50
C#CCNC(=O)c1cccc(NC(=O)c2nn(C(C)(C)C)nc2CC)c1 [Compound 380]; 70
CCn1nc(C(C)(C)C)cc1C(=O)Nc1cccc(C(=O)NC2CC2)n1 [Compound 146]; 20

Data request: Please look up its Plant response rating, Barnyardgrass: CC(=NO)c1cccc(NC(=O)c2cc(C(C)(C)C)nn2C)c1 [Compound 102]
Data returned: 70

Data request: Please look up its Plant response rating, Barnyardgrass: CCN1N=C(C(C)(C)C)CC1C(=O)Nc1cc(C(=O)N2CCCCC2)ccc1F (racemic) [Compound 331]
Data returned: 65

Data request: Please look up its Plant response rating, Barnyardgrass: CCNC(=O)c1cccc(NC(=O)c2nn(C(C)(C)CC)nc2CC)c1 [Compound 376]
Data returned: 75

---

tested on: kochia; experiment: Test C pre-/postemergence herbicide test; type: in vivo, Kochia scoparia; conditions: 62 g ai/ha; preemergence; scale 0 to 100
Rule: Plant response rating, Kochia below 80 gives criterion met. Equal to or above 80 gives criterion not met.

Cc1nn(C(C)(C)C)nc1C(=O)Nc1cccc(C(=O)N(C)C)c1; criterion not met
CCN(CC)C(=O)c1cccc(NC(=O)c2nn(C(C)(C)C)nc2C)c1; criterion met
CCn1nc(C(C)(C)C)cc1C(=O)Nc1cncc(C(=O)N(C)C)n1; criterion not met
CCc1nn(C(C)(C)C)nc1C(=O)Nc1cccc(C(=O)NC2CC2)c1; criterion met

With those in mind, consider the next compound.
Data request: # check: Plant response rating, Kochia < 80 for CCc1nc(C(C)(C)C)sc1C(=O)Nc1cccc(C(=O)NCC2CC2)n1
Data returned: criterion not met

---

system: lambsquarters; test: Test C pre-/postemergence herbicide test; type: in vivo, Chenopodium album; conditions: postemergence; 62 g ai/ha; scale 0 to 100
Quantity measured: Plant response rating, Lambsquarters
// no unit string in output, number only

CCn1nc(C(C)(C)C)cc1C(=O)Nc1ccc(F)c(C(=O)NCCF)c1; 10
CCn1nc(C(C)(C)C)cc1C(=O)Nc1cccc(C(=O)OC)c1; 5
CCn1nc(C(C)(C)C)cc1C(=O)Nc1cccc(OC(F)(F)C(F)F)c1; 60

Data request: Please look up its Plant response rating, Lambsquarters: CCn1nc(C(C)(C)C)cc1C(=O)Nc1cccc(OC(F)(F)F)c1
Data returned: 100

Data request: Please look up its Plant response rating, Lambsquarters: CCn1nc(C(C)(C)C)cc1C(=O)Nc1cccc(C(C)=NO)c1
Data returned: 70

Data request: Please look up its Plant response rating, Lambsquarters: C#CCOC(=O)c1cccc(NC(=O)c2cc(C(C)(C)C)nn2CC)c1
Data returned: 0

---

tested on: blackgrass; assay: Test B postemergence herbicide test; assay type: in vivo, Alopecurus myosuroides; conditions: 125 g ai/ha; visual rating, scale 0 (no effect) to 100 (complete control); postemergence
Quantity measured: Blackgrass plant response rating
// no unit string in output, number only

Example cases with answers are listed next.
CCNC(=O)c1cncc(NC(=O)c2cc(C(C)(C)C)nn2CC)n1; 20
C#CCNC(=O)c1cccc(NC(=O)c2nn(C(C)(C)C)nc2CC)c1; 20
COC(=O)c1ccc(F)c(NC(=O)c2nn(C(C)C)nc2C)c1; 0
CCNC(=O)c1cccc(NC(=O)c2nn(C(C)(C)CC)nc2CC)c1; 10
Cc1nn(C(C)(C)C)nc1C(=O)Nc1cccc(C(=O)N(C)C)c1; 30
CCc1nn(C(C)(C)C)nc1C(=O)Nc1cc(C(=O)N2CCCCC2)ccc1F; 20
C#CCNC(=O)c1ccc(F)c(NC(=O)c2cc(C3(C)CC3)nn2CC)c1; 10
CCc1cn(C(C)(C)C)nc1C(=O)Nc1cccc(C(=O)N(C)C)n1; 0
CCc1nn(C2CCCC2)nc1C(=O)Nc1cccc(C(=O)N(C)C)c1; 0

Data request: Please look up its Blackgrass plant response rating: CCc1nn(C(C)(C)CC)nc1C(=O)Nc1cccc(C(=O)N2CC=CC2)c1
Data returned: 0

---

Measured Plant response rating, Sunflower, listed per entry for reference.
test system: common (oilseed) sunflower; assay: Test C pre-/postemergence herbicide test; assay type: in vivo, Helianthus annuus; details: 62 g ai/ha; preemergence; scale 0 to 100
// no unit string in output, number only

Example cases with answers are listed next.
CCN(CC)C(=O)c1cccc(NC(=O)c2nn(C(C)(C)C)nc2C)c1; 0
CCNC(=O)c1cc(C)nc(NC(=O)c2cc(C(C)(C)C)nn2CC)c1; 0
CCC1=NN(C(C)(C)C)CC1C(=O)Nc1cc(C(=O)N2CC=CC2)ccc1F (racemic); 0

Data request: Please look up its Plant response rating, Sunflower: Cc1nn(C(C)(C)C)nc1C(=O)Nc1cccc(C(=O)N(C)C)c1
Data returned: 50

Data request: Please look up its Plant response rating, Sunflower: CCC1=NN(C(C)(C)C)CC1C(=O)Nc1cc(C(=O)N2CCCC2)ccc1F (racemic)
Data returned: 0

Data request: Please look up its Plant response rating, Sunflower: CCn1nc(C(C)(C)C)cc1C(=O)Nc1cncc(C(=O)N(C)C)n1
Data returned: 90
